Activity: recorded values
System: DU-145
Assay protocol: Cell cycle arrest in human DU145 cells assessed as subG1 phase at 1 uM after 48 hrs by propidium iodide based flow cytometry (reference value: 9.36 %)
Assay type: functional
Numbers only here, please. The scale is %.

Example compounds with recorded Activity:
- Compound: "Cc1ccc(S(=O)(=O)N2CC(=O)N3Cc4ccccc4[C@@H](OCc4ccccc4)[C@@H]3C2)cc1"
  Unit spec: "%"
  Result number: 5.02
- Compound: "Cc1ccc(S(=O)(=O)N2C[C@H]3[C@H](OCc4ccccc4)c4ccccc4CN3C(=O)[C@@H]2C)cc1"
  Unit spec: "%"
  Result number: 6.74

Problem: Would you please give the reported Activity of COC(=O)Nc1nc2cc(C(=O)c3cccs3)ccc2[nH]1 with DU-145?
Solution: 4.52

Problem: Using DU-145 as the test system, report measured Activity of COc1cc([C@@H]2c3cc4c(cc3[C@@H](O[C@@H]3O[C@@H]5CO[C@@H](C)O[C@H]5[C@H](O)[C@H]3O)[C@H]3COC(=O)[C@H]23)OCO4)cc(OC)c1O [ETOPOSIDE] .
Solution: 7.13

====

Listing: Activity of selected molecules
System: DU-145
Assay protocol: Cell cycle arrest in human DU145 cells assessed as G2/M phase at 1 uM after 48 hrs by propidium iodide based flow cytometry (reference value: 6.75 %)
Format: functional
Provide a numeric answer, followed by its unit.

- Molecule: "Cc1ccc(S(=O)(=O)N2CC(=O)N3Cc4ccccc4[C@@H](OCc4ccccc4)[C@@H]3C2)cc1"
  Recorded endpoint: "Activity"
  Result: "44.17%"

Problem: For the molecule COc1cc([C@@H]2c3cc4c(cc3[C@@H](O[C@@H]3O[C@@H]5CO[C@@H](C)O[C@H]5[C@H](O)[C@H]3O)[C@H]3COC(=O)[C@H]23)OCO4)cc(OC)c1O [ETOPOSIDE] , give its reported Activity.
Solution: 38.75%

Problem: Output Activity of COC(=O)Nc1nc2cc(C(=O)c3cccs3)ccc2[nH]1
Solution: 43.4%

Problem: Complete the entry with Activity for Cc1ccc(S(=O)(=O)N2C[C@H]3[C@H](OCc4ccccc4)c4ccccc4CN3C(=O)[C@@H]2C)cc1
Solution: 40.27%

====

Each entry below lists one item and its recorded pIC50 value.
Tested on: HeLa
Assay protocol: Anticancer activity against human HeLa cells after 48 hrs by MTT assay
Type: functional, cell-based
The quantity pIC50 is defined as the negative base-10 logarithm of the molar concentration.

Examples from the recorded data:
- Compound: "O=C(/C=C/c1ccc([N+](=O)[O-])cc1)N1Cc2ccccc2[C@@H](OCc2ccccc2)[C@@H]1CO"
  Subject of test: "HeLa"
  pIC50: 4.57
- Compound: "Cc1ccc(S(=O)(=O)N[C@@H](Cc2ccccc2)C(=O)N2Cc3ccccc3[C@@H](OCc3ccccc3)[C@@H]2CO)cc1"
  Subject of test: "HeLa"
  pIC50: 4.91
- Compound: "COc1cccc2c1C(=O)c1c(O)c3c(c(O)c1C2=O)C[C@@](O)(C(=O)CO)C[C@@H]3O[C@H]1C[C@H](N)[C@H](O)[C@H](C)O1 [DOXORUBICIN]"
  Subject of test: "HeLa"
  pIC50: 5.64
- Compound: "Cc1ccc(S(=O)(=O)NCC(=O)N2Cc3ccccc3[C@@H](OCc3ccccc3)[C@@H]2CO)cc1"
  Subject of test: "HeLa"
  pIC50: 4.82
- Compound: "Cc1ccc(S(=O)(=O)N2C[C@H]3[C@H](OCc4ccccc4)c4ccccc4CN3C(=O)[C@@H]2Cc2ccccc2)cc1"
  Subject of test: "HeLa"
  pIC50: 4.69

Problem: Look up and state reported pIC50 for COc1cc(/C=C/C(=O)N2Cc3ccccc3[C@@H](OCc3ccccc3)[C@@H]2CO)ccc1O
Solution: 4.17

Problem: Give me measured pIC50, please, for this compound: O=C(/C=C/c1ccc(F)cc1)N1Cc2ccccc2[C@@H](OCc2ccccc2)[C@@H]1CO
Solution: 4.23

Problem: Give a short answer stating reported pIC50 for Cc1ccc(S(=O)(=O)Nc2ccccc2C(=O)N2Cc3ccccc3[C@@H](OCc3ccccc3)[C@@H]2CO)cc1 .
Solution: 4.25

Problem: Read off the recorded pIC50 for COc1ccc(C(=O)N2Cc3ccccc3[C@@H](OCc3ccccc3)[C@@H]2CO)c(O)c1
Solution: 4.90

Problem: For the compound COc1cc([C@@H]2c3cc4c(cc3[C@@H](O[C@@H]3O[C@@H]5CO[C@@H](C)O[C@H]5[C@H](O)[C@H]3O)[C@H]3COC(=O)[C@H]23)OCO4)cc(OC)c1O [ETOPOSIDE] , give its reported pIC50.
Solution: 5.49

Problem: Return pIC50 for the following compound: COc1cccc(/C=C/C(=O)N2Cc3ccccc3[C@@H](OCc3ccccc3)[C@@H]2CO)c1OC
Solution: 4.48

Problem: State its pIC50: CC#CC(=O)N1Cc2ccccc2[C@@H](OCc2ccccc2)[C@@H]1CO
Solution: 4.94

Problem: Look up and report measured pIC50 for this entry: Cc1ccc(S(=O)(=O)N[C@H](C(=O)N2Cc3ccccc3[C@@H](OCc3ccccc3)[C@@H]2CO)C(C)C)cc1
Solution: 4.03

Problem: // Input: Cc1ccc(S(=O)(=O)N[C@@H](C)C(=O)N2Cc3ccccc3[C@@H](OCc3ccccc3)[C@@H]2CO)cc1 . Output its pIC50 only.
Solution: 4.68

Problem: Name the recorded pIC50 of the item O=C(/C=C/c1cccc(O)c1)N1Cc2ccccc2[C@@H](OCc2ccccc2)[C@@H]1CO in your answer.
Solution: 4.80

====

System: HeLa
Assay protocol: Anticancer activity against human HeLa cells after 48 hrs by MTT assay
Format: functional, cell-based
Recorded endpoint: pIC50
Notebook: values listed as pIC50 are -log10 of the concentration (mol/L).

Problem: Retrieve pIC50 on HeLa; query Cc1ccc(S(=O)(=O)N2CC(=O)N3Cc4ccccc4[C@@H](OCc4ccccc4)[C@@H]3C2)cc1
Solution: 5.50

Problem: Look up HeLa data: pIC50 of Cc1ccc(S(=O)(=O)N2C[C@H]3[C@H](OCc4ccccc4)c4ccccc4CN3C(=O)[C@@H]2C)cc1 , then report it.
Solution: 5.14

Problem: For HeLa, give the measured pIC50 of the entry O=C(/C=C/c1ccccc1)N1Cc2ccccc2[C@@H](OCc2ccccc2)[C@@H]1CO
Solution: 4.56

====

IC50 by entry:
Subject of test: Tubulin
Assay protocol: Inhibition of tubulin (unknown origin) polymerization by fluorescence assay
Return type: number; implicit unit nM.

- Line notation: "Cc1ccc(S(=O)(=O)N2CC(=O)N3Cc4ccccc4[C@@H](OCc4ccccc4)[C@@H]3C2)cc1"
  IC50 (nM): 1680

Problem: Annotate the molecule Cc1ccc(S(=O)(=O)N2C[C@H]3[C@H](OCc4ccccc4)c4ccccc4CN3C(=O)[C@@H]2C)cc1 with its measured IC50.
Solution: 3550
